Attribution: ChEMBL document CHEMBL3259670

protocolDetails: Toxicity in SPF mouse compound administered through iv
Assay type: organism-based
conditionLabel: in vivo
propertyMeasured: LD50 (mg/kg)

- O=C(c1cccs1)N1CCN(CCOc2ccc(Cl)cc2)CC1: 73.7

###

pKa reference
protocolDetails: Dissociation constant, pKa of the compound
Type: physicochemical
propertyMeasured: pKa

* N#Cc1ccc(OCCN2CCN(CC(=O)Nc3nccs3)CC2)cc1 | 6.37
* O=C(c1cccs1)N1CCN(CCOc2ccc(Cl)cc2Cl)CC1 | 5.23
* O=C(CN1CCN(CCOc2ccc(OC(F)(F)F)cc2)CC1)Nc1nccs1 | 6.74
* O=C(c1cccs1)N1CCN(CCOc2ccc(Cl)cc2)CC1 | 6.35
* Cc1ccc(OCCN2CCN(C(=O)c3cccs3)CC2)cc1 | 6.4
* Cc1ccccc1OCCN1CCN(CC(=O)Nc2nccs2)CC1 | 7.11

###

System: MDR1
protocolDetails: Apparent permeability from basolateral to apical side in MDCK cells expressing MDR1
Format: ADME, cell-based, Canis lupus familiaris
conditionLabel: dog, MDCK-MDR1
propertyMeasured: Papp B→A (×10⁻⁶ cm/s)

* Cc1ccc(OCCN2CCN(C(=O)c3cccs3)CC2)cc1 | 32.8
* O=C(c1cccs1)N1CCN(CCOc2ccc(Cl)cc2Cl)CC1 | 31.5
* Cc1ccccc1OCCN1CCN(CC(=O)Nc2nccs2)CC1 | 32.3
* O=C(c1cccs1)N1CCN(CCOc2ccc(Cl)cc2)CC1 | 19.3

###

IC50 reference
experimentalSystem: Potassium voltage-gated channel subfamily A member 5 (Homo sapiens)
Sequence (P22460 whole entry): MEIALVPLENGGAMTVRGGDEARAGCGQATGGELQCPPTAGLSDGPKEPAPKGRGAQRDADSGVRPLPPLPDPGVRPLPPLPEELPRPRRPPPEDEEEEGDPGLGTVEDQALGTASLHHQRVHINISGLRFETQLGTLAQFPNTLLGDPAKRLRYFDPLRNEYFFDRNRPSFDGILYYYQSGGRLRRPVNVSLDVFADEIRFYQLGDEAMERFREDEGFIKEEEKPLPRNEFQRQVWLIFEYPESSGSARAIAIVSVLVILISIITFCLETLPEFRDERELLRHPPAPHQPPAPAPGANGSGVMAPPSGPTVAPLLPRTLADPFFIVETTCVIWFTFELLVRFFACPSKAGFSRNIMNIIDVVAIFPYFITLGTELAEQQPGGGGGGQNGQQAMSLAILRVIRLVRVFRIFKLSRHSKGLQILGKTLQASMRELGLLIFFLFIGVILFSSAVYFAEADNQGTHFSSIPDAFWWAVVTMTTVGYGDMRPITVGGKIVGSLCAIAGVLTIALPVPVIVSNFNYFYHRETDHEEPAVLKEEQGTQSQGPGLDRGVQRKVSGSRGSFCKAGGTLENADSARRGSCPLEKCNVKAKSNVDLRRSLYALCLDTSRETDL
protocolDetails: Inhibition of human Kv1.5 channel expressed in HEK293 cells by whole cell patch clamp assay
propertyMeasured: IC50 (µM)

* O=C(CN1CCN(CCOc2ccc(Cl)cc2)CC1)Nc1nccs1 | 5.18
* N#Cc1ccc(OCCN2CCN(CC(=O)Nc3ccccc3)CC2)cc1 | 9.1
* O=C(c1ccccc1)N1CCN(CCOc2ccccc2)CC1 | 38.8
* O=C(CN1CCN(CCOc2ccccc2Cl)CC1)Nc1nccs1 | 3.39
* O=C(CN1CCN(CCOc2ccc(Cl)cc2)CC1)Nc1ccccc1 | 4.38
* Cc1ccc(OCCN2CCN(CC(=O)Nc3nccs3)CC2)cc1C | 50.2
* O=C(c1cccs1)N1CCN(CCOc2ccc(OC(F)(F)F)cc2)CC1 | 6.44
* Cc1ccccc1OCCN1CCN(CC(=O)Nc2nccs2)CC1 | 1.24
* O=C(c1cccs1)N1CCN(CCOc2ccccc2)CC1 | 37.5
* Cc1ccc(OCCN2CCN(CC(=O)Nc3nccs3)CC2)c(C)c1 | 17.2
* O=C(CN1CCN(CCOc2ccc3ccccc3c2)CC1)Nc1nccs1 | 68
* Cc1ccc(C(=O)N2CCN(CCOc3ccccc3)CC2)cc1 | 7.14
* Cc1ccc(NC(=O)CN2CCN(CCOc3ccc(C#N)cc3)CC2)cc1 | 4.49
* O=C(CN1CCN(CCOc2ccccc2)CC1)Nc1ccccc1 | 28.6
* COc1ccc(OCCN2CCN(CC(=O)Nc3nccs3)CC2)cc1 | 9.13
* O=C(c1cccs1)N1CCN(CCOc2ccc(Br)cc2)CC1 | 12.2
* COc1ccc(C(=O)N2CCN(CCOc3ccccc3)CC2)cc1 | 16.1
* Cc1ccccc1OCCN1CCN(C(=O)c2cccs2)CC1 | 13.5
* O=C(CN1CCN(CCOc2ccc(Cl)cc2)CC1)Nc1ccccc1Cl | 3.59
* O=C(c1ccccc1)N1CCN(CCOc2ccc(Cl)cc2)CC1 | 3.97
* Cc1ccc(OCCN2CCN(C(=O)c3ccccc3)CC2)cc1 | 25.3
* O=C(c1ccccc1Cl)N1CCN(CCOc2ccccc2)CC1 | 56.7
* N#Cc1ccc(OCCN2CCN(C(=O)c3ccccc3)CC2)cc1 | 4.23
* Cc1ccc(OCCN2CCN(CC(=O)Nc3nccs3)CC2)cc1 | 8.93
